target: T1, VEGFR-2-Fc (UniProt P35968 20-322); assay: receptor-Fc IP
T1 construct: domain: first 3 Ig domains; conditioned supernatant of 293T cells; also called VEGFR-2-Fc fusion protein; not shown: Fc fragment of the pIg vector
T1 sequence (P35968 20-322): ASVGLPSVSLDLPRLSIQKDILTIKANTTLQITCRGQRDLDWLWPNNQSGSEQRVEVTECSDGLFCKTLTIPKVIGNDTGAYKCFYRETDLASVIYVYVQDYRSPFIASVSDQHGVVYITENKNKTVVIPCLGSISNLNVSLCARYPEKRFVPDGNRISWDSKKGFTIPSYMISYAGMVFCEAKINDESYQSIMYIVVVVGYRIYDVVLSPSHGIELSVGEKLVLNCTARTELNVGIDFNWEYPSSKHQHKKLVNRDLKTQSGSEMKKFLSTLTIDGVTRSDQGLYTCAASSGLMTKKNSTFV

{"BINDER": "21-6 (ligand) AHYNTEILKSIDNEWRKTQCMPREVCIDVGKEYPDEIEYIFKPSCVPLMRCGGCCNDEGLECMNTSTSYLSKTLFEIKPHQGQHIGEMSFANHTSCRCMSKLD", "binding result": "no binding"}
{"BINDER": "61-7 (ligand) GQNHHEVVKFMDVYQRSYCHPREVCIDVGKEYPDEIEYIFKPSCVPLMRCGGCCNSEGLQCVPTEESNITMQIMRIKPHQGQHIGEMSFANHTSCRCMSKLD", "binding result": "no binding"}
